Molecular target: Nuclear receptor subfamily 1 group D member 1 (Homo sapiens)
Test: Agonist activity at Rev-erbalpha assessed as repression of transcription at 10 uM by luciferase-reporter gene assay relative to control
Format: functional
Metric Name: fold change (FC)
I only need the number, thanks.

# input What value of measured fold change (FC) is listed for CCOC(=O)C1Cc2ccccc2CN1C(=O)Oc1ccc(Cl)cc1 (configuration not stated) ?
# output 1.3

# input What value of measured fold change (FC) is listed for O=C(c1cccc2ccccc12)N1Cc2ccccc2CC1COCc1ccccc1 (configuration not stated) ?
# output 0.41

# input What value of measured fold change (FC) is listed for O=C(c1cccc2ccccc12)N1Cc2ccccc2CC1COc1ccc(-n2cncn2)cc1 (configuration not stated) ?
# output 0.35

# input What value of measured fold change (FC) is listed for O=C(O)C1Cc2ccccc2CN1C(=O)c1cccc2ccccc12 (configuration not stated) ?
# output 0.67

# input What value of measured fold change (FC) is listed for CCOC(=O)C1Cc2ccccc2CN1S(=O)(=O)c1cccc2ccccc12 (configuration not stated) ?
# output 0.5

# input What value of measured fold change (FC) is listed for CCOC(=O)C1Cc2ccccc2CN1C(=O)c1ccccc1Cl (configuration not stated) ?
# output 0.78

# input What value of measured fold change (FC) is listed for CCOC(=O)C1Cc2ccccc2CN1Cc1ccc(C(F)(F)F)nc1 (configuration not stated) ?
# output 1

# input What value of measured fold change (FC) is listed for CCOC(=O)C1Cc2ccccc2CN1Cc1cccc2ccccc12 (configuration not stated) ?
# output 1

# input What value of measured fold change (FC) is listed for CC(C)(C)Oc1ccc(OCC2Cc3ccccc3CN2C(=O)c2cccc3ccccc23)cc1 (configuration not stated) ?
# output 0.5

# input What value of measured fold change (FC) is listed for CCOC(=O)C1Cc2ccccc2CN1C(=O)C1COc2ccccc2O1 (configuration not stated) ?
# output 0.81

# input What value of measured fold change (FC) is listed for O=C(c1cccc2ccccc12)N1Cc2ccccc2CC1COc1ccccc1 (configuration not stated) ?
# output 0.37

# input What value of measured fold change (FC) is listed for COc1cccc(OCC2Cc3ccccc3CN2C(=O)c2cccc3ccccc23)c1 (configuration not stated) ?
# output 0.45

# input What value of measured fold change (FC) is listed for NCC1Cc2ccccc2CN1C(=O)c1cccc2ccccc12 (configuration not stated) ?
# output 0.74

# input What value of measured fold change (FC) is listed for NC(=O)C1Cc2ccccc2CN1C(=O)c1cccc2ccccc12 (configuration not stated) ?
# output 0.61

# input What value of measured fold change (FC) is listed for CC(C)(C)OC(=O)CN(Cc1ccc(Cl)cc1)Cc1ccc([N+](=O)[O-])s1 ?
# output 0.82

# input What value of measured fold change (FC) is listed for O=C(c1cccc2ccccc12)N1Cc2ccccc2CC1CNCc1ccccc1 (configuration not stated) ?
# output 0.43

# input What value of measured fold change (FC) is listed for CCOc1ccc(OCC2Cc3ccccc3CN2C(=O)c2cccc3ccccc23)cc1 (configuration not stated) ?
# output 0.35

# input What value of measured fold change (FC) is listed for O=C(Nc1ccccc1)C1Cc2ccccc2CN1C(=O)c1cccc2ccccc12 (configuration not stated) ?
# output 0.59

# input What value of measured fold change (FC) is listed for CC(=O)OCC1Cc2ccccc2CN1C(=O)c1cccc2ccccc12 (configuration not stated) ?
# output 0.65

# input What value of measured fold change (FC) is listed for CCOC(=O)C1Cc2ccccc2CN1C(=O)c1cccc2oc(C)cc12 (configuration not stated) ?
# output 0.51

# input What value of measured fold change (FC) is listed for CCOC(=O)C1Cc2ccccc2CN1C(=O)Oc1ccccc1 (configuration not stated) ?
# output 1

# input What value of measured fold change (FC) is listed for O=C(c1cccc2ccccc12)N1Cc2ccccc2CC1COc1ccc(F)cc1 (configuration not stated) ?
# output 0.43
